# System: HSD1 enzyme that is expressed in rabbit placenta tissue
# protocol summary: Inhibition of E1 to E2 conversion in rabbit placenta tissue homogenate
# Format: biochemical
# measurement context: inhibitor 100 nM, 30 nM estrone, 30 min
endpoint: Rabbit placenta inhibition % @100 nM (%)
Give your result in % as a bare value.

Some solved cases for reference:
CN1CCN(c2ccc(NC(=O)CC[C@@H]3C/C(=N\O)[C@@]4(C)CCC5c6cccc(F)c6CCC5C34)nc2)CC1 (stereo partly drawn): 76
Cc1cc(NC(=O)CC[C@@H]2C/C(=N\O)[C@@]3(C)CCC4c5cccc(F)c5CCC4C23)no1 (stereo partly drawn): 75
CN(C(=O)CC[C@@H]1C/C(=N\O)[C@@]2(C)CCC3c4ccccc4CCC3C12)C1CCOCC1 (stereo partly drawn): 3
C[C@]12CCC3c4ccc(Cl)cc4CCC3C1[C@H](CCC(=O)Nc1ncccc1F)C/C2=N\O (stereo partly drawn) [Compound 162]: 7

Read the next record carefully.
**Q:** Please report the measured Rabbit placenta inhibition % @100 nM for C[C@]12CCC3c4ccc(Cl)cc4CCC3C1[C@H](CCC(=O)Nc1ncccc1F)C/C2=N\O (stereo partly drawn) [Compound 62]
**A:** 3
